All figures here come from ChEMBL document CHEMBL1147514.

Biological target: Neuronal acetylcholine receptor; alpha3/beta2 (Rattus norvegicus, UniProt P04757+P12390)
Sequence (P04757 whole entry, one chain of several): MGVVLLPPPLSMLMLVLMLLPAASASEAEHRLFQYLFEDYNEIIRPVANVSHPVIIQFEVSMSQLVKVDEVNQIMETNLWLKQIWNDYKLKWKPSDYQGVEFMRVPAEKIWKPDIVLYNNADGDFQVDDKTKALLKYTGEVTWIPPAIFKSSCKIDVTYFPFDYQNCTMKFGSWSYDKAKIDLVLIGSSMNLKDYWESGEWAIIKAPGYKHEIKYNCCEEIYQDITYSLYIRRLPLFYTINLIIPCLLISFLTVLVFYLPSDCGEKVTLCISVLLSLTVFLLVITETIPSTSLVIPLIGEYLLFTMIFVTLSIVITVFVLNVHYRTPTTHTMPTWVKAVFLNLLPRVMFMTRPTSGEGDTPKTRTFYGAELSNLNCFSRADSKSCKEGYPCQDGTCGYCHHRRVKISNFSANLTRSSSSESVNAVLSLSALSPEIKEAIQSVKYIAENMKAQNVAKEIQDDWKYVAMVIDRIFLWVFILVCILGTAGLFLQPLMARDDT
Assay: Binding affinity towards rat Nicotinic acetylcholine receptor alpha3-beta2 expressed in Xenopus oocytes using [3H]epibatidine as radioligand
METRIC: Ki (nM)
Give bare numbers, in nM.

Reference set, count: 3
Which Ki value belongs to c1cncc(C2CC3CCC2N3)c1 (configuration not stated) [DESCHLOROEPIBATIDINE] ? 0.0031

# Ki lookup, item Fc1ccc(C2CC3CCC2N3)cn1 (configuration not stated) 0.0038

I am curious: what Ki value has been reported for Nc1ccc(C2CC3CCC2N3)cn1 (configuration not stated) ? 0.077

Here is the next item to consider.
# get_value(readout='Ki', item= Brc1ccc(C2CC3CCC2N3)cn1 (configuration not stated) ) 0.004

====

Answer each item with its documented Ki.
Target: Neuronal acetylcholine receptor; alpha4/beta4 (Rattus norvegicus, UniProt P09483+P12392)
Sequence (P09483 whole entry): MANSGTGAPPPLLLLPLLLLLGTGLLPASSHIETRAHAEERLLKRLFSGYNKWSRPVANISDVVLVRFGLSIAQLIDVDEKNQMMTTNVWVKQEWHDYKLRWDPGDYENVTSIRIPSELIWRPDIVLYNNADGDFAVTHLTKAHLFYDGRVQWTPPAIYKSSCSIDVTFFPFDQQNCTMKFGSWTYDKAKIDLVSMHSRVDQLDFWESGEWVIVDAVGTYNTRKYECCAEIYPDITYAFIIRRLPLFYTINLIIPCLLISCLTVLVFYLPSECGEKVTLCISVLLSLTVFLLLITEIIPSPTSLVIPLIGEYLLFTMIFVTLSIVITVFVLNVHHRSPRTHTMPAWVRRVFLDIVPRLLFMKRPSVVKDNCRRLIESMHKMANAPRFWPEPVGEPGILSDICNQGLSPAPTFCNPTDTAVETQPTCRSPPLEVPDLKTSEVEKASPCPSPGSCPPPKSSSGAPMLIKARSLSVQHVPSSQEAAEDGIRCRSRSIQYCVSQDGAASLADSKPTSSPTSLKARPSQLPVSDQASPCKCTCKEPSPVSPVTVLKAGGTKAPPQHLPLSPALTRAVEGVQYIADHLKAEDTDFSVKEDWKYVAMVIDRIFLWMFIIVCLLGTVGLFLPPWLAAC
Sequence (P12392 whole entry): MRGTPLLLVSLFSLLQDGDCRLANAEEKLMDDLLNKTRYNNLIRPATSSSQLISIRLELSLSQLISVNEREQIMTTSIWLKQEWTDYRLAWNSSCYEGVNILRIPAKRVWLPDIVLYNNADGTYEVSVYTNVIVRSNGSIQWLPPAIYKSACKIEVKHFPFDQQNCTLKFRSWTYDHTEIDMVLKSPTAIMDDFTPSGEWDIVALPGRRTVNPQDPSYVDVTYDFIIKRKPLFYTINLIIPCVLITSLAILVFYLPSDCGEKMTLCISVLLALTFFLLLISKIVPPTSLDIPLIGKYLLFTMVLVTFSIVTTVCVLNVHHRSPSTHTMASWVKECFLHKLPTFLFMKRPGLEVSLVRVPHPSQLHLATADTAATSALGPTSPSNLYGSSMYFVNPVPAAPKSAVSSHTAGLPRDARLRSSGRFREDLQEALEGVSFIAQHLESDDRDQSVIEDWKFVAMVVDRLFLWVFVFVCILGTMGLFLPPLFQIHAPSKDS
Assay: Binding affinity towards rat Nicotinic acetylcholine receptor alpha4-beta4 expressed in Xenopus oocytes using [3H]epibatidine as radioligand
Numbers only, in nM.

Batch lookup, Ki per entry.
1. Nc1ccc(C2CC3CCC2N3)cn1 (centres undefined)
2. Fc1ccc(C2CC3CCC2N3)cn1 (centres undefined)
3. c1cncc(C2CC3CCC2N3)c1 (centres undefined) [DESCHLOROEPIBATIDINE]
4. Brc1ccc(C2CC3CCC2N3)cn1 (centres undefined)

1. 4.3
2. 0.48
3. 3.2
4. 0.044

====

Biological target: Neuronal acetylcholine receptor; alpha4/beta2 (Rattus norvegicus, UniProt P09483+P12390)
Experiment: Inhibition of [3H]epibatidine binding to Nicotinic acetylcholine receptor alpha4-beta2 from rat membranes
METRIC: pKi
Give bare numbers, as −log10 of the molar value.

Consider the worked cases shown below.
Which pKi value belongs to Fc1ncc(C2CC3CCC2N3)cc1-c1ccccc1 (racemic) ? 9.62

If you can, please state the reported pKi value of Fc1ncc([C@H]2C[C@@H]3CC[C@H]2N3)cc1-c1ccccc1 . 9.59

Reported pKi for Clc1cc(C2CC3CCC2N3)cnc1Cl (centres undefined) : what is it? 10.85

Record request: pKi value, item [N-]=[N+]=Nc1cc(C2CC3CCC2N3)cnc1Cl (centres undefined) [AZIDOEPIBATIDINE] 10.57

Param item = Fc1cc(C2CC3CCC2N3)cnc1Cl (centres undefined) ; retrieve measured pKi. 10.60

Consider the compound Fc1ncc([C@@H]2C[C@H]3CC[C@@H]2N3)cc1-c1ccccc1 and give its measured pKi. 9.62

For each of the compounds below, state pKi.
1. Nc1cc(C2CC3CCC2N3)cnc1Cl (centres undefined)
2. Clc1ncc(C2CC3CCC2N3)cc1I (centres undefined)
3. Ic1ccc(C2CC3CCC2N3)cn1 (centres undefined)

1: 11.00; 2: 11.10; 3: 10.05

====

Biological target: Neuronal acetylcholine receptor; alpha4/beta2 (Rattus norvegicus) (UniProt P09483+P12390)
Experiment: Functional potency measured as maximum stimulation at rat Nicotinic acetylcholine receptor alpha4-beta2 expressed in Xenopus oocytes
Format: cell-based
Conditions: Oocyte
METRIC: Max (%)
Answers are plain numbers, in %.

Solved cases (5 shown):
Quick one: Max for c1cncc(C2CC3CCC2N3)c1 (stereo unspecified) [DESCHLOROEPIBATIDINE] ? 112

Quick one: Max of Brc1ccc(C2CC3CCC2N3)cn1 (stereo unspecified) ? 65

Look up Max: Clc1ccc(C2CC3CCC2N3)cn1 (stereo unspecified) [EPIBATIDINE] 58

// returns reported Max for input CC(=O)OCC[N+](C)(C)C 95

What does the data say about its Max? Entry: Nc1ccc(C2CC3CCC2N3)cn1 (stereo unspecified) 29

Let us examine a further case.
// query Max value for entry Fc1ccc(C2CC3CCC2N3)cn1 (stereo unspecified) 41

====

Target: Neuronal acetylcholine receptor; alpha2/beta4 (Rattus norvegicus, UniProt P12389+P12392)
Test: Binding affinity towards rat Nicotinic acetylcholine receptor alpha2-beta4 expressed in Xenopus oocytes using [3H]epibatidine as radioligand
METRIC: Ki (nM)
Numbers only, in nM.

Guide cases for Ki, answers given:
Entry under review: Fc1ccc(C2CC3CCC2N3)cn1 (centres undefined) . Reported Ki? 1.2

What does the record list as Ki for Nc1ccc(C2CC3CCC2N3)cn1 (centres undefined) ? 3.5

Field request: Ki | item: c1cncc(C2CC3CCC2N3)c1 (centres undefined) [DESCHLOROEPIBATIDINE] 3.3

Others:
Recorded Ki for Brc1ccc(C2CC3CCC2N3)cn1 (centres undefined) , please? 0.055

====

Target: Neuronal acetylcholine receptor; alpha2/beta2 (Rattus norvegicus, UniProt P12389+P12390)
Sequence (P12389 whole entry): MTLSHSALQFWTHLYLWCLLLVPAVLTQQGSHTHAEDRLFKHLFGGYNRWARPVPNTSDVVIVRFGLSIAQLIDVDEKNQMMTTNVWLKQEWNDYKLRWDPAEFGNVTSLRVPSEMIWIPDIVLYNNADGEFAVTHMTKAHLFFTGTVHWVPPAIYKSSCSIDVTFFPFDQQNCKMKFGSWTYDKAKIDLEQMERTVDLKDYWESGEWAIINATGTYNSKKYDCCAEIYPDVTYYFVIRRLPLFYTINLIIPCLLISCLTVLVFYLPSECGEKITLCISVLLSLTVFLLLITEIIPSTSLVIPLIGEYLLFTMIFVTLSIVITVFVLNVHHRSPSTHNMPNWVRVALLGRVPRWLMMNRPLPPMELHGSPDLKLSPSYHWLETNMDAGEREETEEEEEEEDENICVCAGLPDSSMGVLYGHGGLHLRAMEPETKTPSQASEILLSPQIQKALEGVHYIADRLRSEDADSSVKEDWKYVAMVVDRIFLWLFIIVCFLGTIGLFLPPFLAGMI
Sequence (P12390 whole entry): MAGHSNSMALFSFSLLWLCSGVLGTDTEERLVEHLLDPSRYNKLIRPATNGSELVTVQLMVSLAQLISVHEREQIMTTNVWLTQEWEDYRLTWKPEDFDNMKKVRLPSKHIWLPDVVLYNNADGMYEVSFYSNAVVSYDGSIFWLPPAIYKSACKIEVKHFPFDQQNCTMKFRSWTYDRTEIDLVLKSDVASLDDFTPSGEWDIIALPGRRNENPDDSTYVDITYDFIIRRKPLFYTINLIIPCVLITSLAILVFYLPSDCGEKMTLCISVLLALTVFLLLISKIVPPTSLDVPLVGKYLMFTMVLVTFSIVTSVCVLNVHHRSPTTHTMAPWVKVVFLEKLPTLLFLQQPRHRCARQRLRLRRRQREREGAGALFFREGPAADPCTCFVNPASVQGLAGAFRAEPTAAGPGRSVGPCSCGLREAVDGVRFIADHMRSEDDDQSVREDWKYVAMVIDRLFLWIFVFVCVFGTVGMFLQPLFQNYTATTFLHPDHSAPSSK
Assay: Binding affinity towards rat alpha2-beta2 neuronal nAChR expressed in Xenopus oocytes using [3H]epibatidine as radioligand
METRIC: pKi
Numbers only, as −log10 of the molar value.

# return pKi for each item in the list
1. Nc1ccc(C2CC3CCC2N3)cn1 (configuration not stated)
2. Brc1ccc(C2CC3CCC2N3)cn1 (configuration not stated)
3. Fc1ccc(C2CC3CCC2N3)cn1 (configuration not stated)
4. c1cncc(C2CC3CCC2N3)c1 (configuration not stated) [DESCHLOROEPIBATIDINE]

[10.21, 10.89, 11.62, 10.55]

====

Target: Neuronal acetylcholine receptor; alpha4/beta2 (Rattus norvegicus, UniProt P09483+P12390)
Assay: Binding affinity towards rat Nicotinic acetylcholine receptor alpha4-beta2 expressed in Xenopus oocytes using [3H]epibatidine as radioligand
Type: cell-based, Oocyte
METRIC: Ki (nM)
Answers are plain numbers, in nM.

If you can, please state the reported Ki value of c1cncc(C2CC3CCC2N3)c1 (configuration not stated) [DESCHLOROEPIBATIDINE] . 0.0085

I'm hoping you can list Ki for every molecule here, please.
1. Nc1ccc(C2CC3CCC2N3)cn1 (configuration not stated)
2. Brc1ccc(C2CC3CCC2N3)cn1 (configuration not stated)
3. Fc1ccc(C2CC3CCC2N3)cn1 (configuration not stated)

1: 0.35; 2: 0.01; 3: 0.0092

====

Biological target: Neuronal acetylcholine receptor; alpha3/beta2 (Rattus norvegicus, UniProt P04757+P12390)
Experiment: Binding affinity towards rat Nicotinic acetylcholine receptor alpha3-beta2 expressed in Xenopus oocytes using [3H]epibatidine as radioligand
pKi: −log10 of the molar value.
METRIC: pKi

Reported pKi for CN(C)c1ccc(C2CC3CCC2N3)cn1 (stereo not drawn) : what is it? < 7.00

So what does the record say about pKi for O=c1ccc(C2CC3CCC2N3)c[nH]1 (stereo not drawn) ? < 7.00

Please examine the following record next.
GET /values?readout=pKi&item= O=S(=O)(OC(F)(F)F)c1ccc(C2CC3CCC2N3)cn1 (stereo not drawn) ~7.00

====

For each entry below, report its pKi value.
Molecular target: Neuronal acetylcholine receptor; alpha2/beta2 (Rattus norvegicus, UniProt P12389+P12390)
Test: Binding affinity towards rat alpha2-beta2 neuronal nAChR expressed in Xenopus oocytes using [3H]epibatidine as radioligand
pKi: −log10 of the molar value.

Below are worked cases with known answers.
Record request: pKi value, item CN(C)c1ccc(C2CC3CCC2N3)cn1 (stereo not drawn) < 7.00

# input molecule: O=S(=O)(OC(F)(F)F)c1ccc(C2CC3CCC2N3)cn1 (stereo not drawn) ; wanted: its pKi < 8.00

# input for lookup
What does the record list as pKi for O=c1ccc(C2CC3CCC2N3)c[nH]1 (stereo not drawn) ? < 7.00

====

Biological target: Neuronal acetylcholine receptor; alpha4/beta2 (Rattus norvegicus, UniProt P09483+P12390)
Assay: Binding affinity towards rat Nicotinic acetylcholine receptor alpha4-beta2 expressed in Xenopus oocytes using [3H]epibatidine as radioligand
Format: cell-based, Oocyte
pKi: −log10 of the molar value.
Exercise: for every item that follows, state its recorded pKi.

Some compounds with recorded pKi:
Could you share which pKi value was measured for O=c1ccc(C2CC3CCC2N3)c[nH]1 (stereo not drawn) ? ~7.00

Looking for the measured pKi of O=S(=O)(OC(F)(F)F)c1ccc(C2CC3CCC2N3)cn1 (stereo not drawn) , can you help? ~7.00

Okay, now this compound:
pKi for CN(C)c1ccc(C2CC3CCC2N3)cn1 (stereo not drawn) ? < 7.00
